target: thrombin (Homo sapiens); test: Thrombin inhibition, fluorimetric enzyme assay; type: biochemical; conditions: 85 μM inhibitor, 36.5° C.; read-out: Residual Activity (%) Thrombin
Residues, ends and D or L forms follow the SMILES beside them.
remaining activity at 85 µM values for the compounds below.
The reply should contain only the number, in %.

CCCCCCCCCCCCCCCCNC(=O)[C@H](CCCCN)NC(=O)CNC(=O)CNC(=O)CNC(=O)CNC(=O)[C@H](CCCCN)NC(=O)CCCCCCCCCCCCCCC [C16KG4KC16] (HELM PEPTIDE1{[CCCCCCCCCCCCCCCC(=O)[*:2]].K.G.G.G.G.K.[CCCCCCCCCCCCCCCCN[*:1]]}$$$$V2.0) = 41
CCCCCCCCCCCCCCCCNC(=O)[C@H](CCCCN)NC(=O)[C@H](CCCCN)NC(=O)CCCCCCCCCCCCCCC [C16-KK-C16, C15H31CO-KK-NH—C16H33] = 37
CCCCCCCCCCCCCCCCNC(=O)[C@H](CCCCN)NC(=O)CNC(=O)CNC(=O)[C@H](CCCCN)NC(=O)CCCCCCCCCCCCCCC [C16-KGGK-C16, C15H31CO-KGGK-NH—C16H33] (HELM PEPTIDE1{[CCCCCCCCCCCCCCCC(=O)[*:2]].K.G.G.K.[CCCCCCCCCCCCCCCCN[*:1]]}$$$$V2.0) = 33
CCCCCCCCCCCCCCCCNC(=O)[C@H](CCCCN)NC(=O)CNC(=O)[C@H](CCCCN)NC(=O)CCCCCCCCCCCCCCC [C16-KGK-C16, C15H31CO-KGK-NH—C16H33] = 40

Kindly consider the entry below.
[ask] Bench note: what remaining activity at 85 µM did CCCCCCCCCCCCCCCCNC(=O)[C@H](CCCCN)NC(=O)CNC(=O)CNC(=O)CNC(=O)[C@H](CCCCN)NC(=O)CCCCCCCCCCCCCCC [C16-KGGGK-C16, C15H31CO-KGGGK-NH—C16H33] (HELM PEPTIDE1{[CCCCCCCCCCCCCCCC(=O)[*:2]].K.G.G.G.K.[CCCCCCCCCCCCCCCCN[*:1]]}$$$$V2.0) show?
[reply] 45
